Hello, the source for this data is ChEMBL document CHEMBL1141927, in case you need it.

Assay: Effective concentration to induce a quorum signal in Vibrio harveyi(by binding Lux P protein)
Type: functional
pEC50: −log10 of the molar value.
Reported pEC50 by item:
Measured Property: pEC50

1) CC(=O)C(=O)[C@H](O)CO	4.08
2) O=C(CO)[C@H](O)[C@H](O)CO	3.97
3) O=C1O[C@H]([C@@H](O)CO)C(O)=C1O [ASCORBIC ACID]	3.13
4) CC(=O)C(=O)[C@@H](O)CO	7.36
5) CC(=O)C(=O)CCO	4.57
6) CC(=O)C(=O)[C@H](O)[C@H](O)CO	3.37
7) O=C(CO)[C@@H](O)[C@H](O)CO	3.25
